For each of the compounds below, state its Ratio.
Tested on: Plasmodium falciparum
MEASUREMENT DESCRIPTION: MMV: Compounds (1uM) were screened in a 72hr growth assay monitored by flow cytometry both in the presence and absence of supplemental isopentenyl pyrophosphate (IPP) 200uM. Compounds which fail to show anti-malarial activity when chemically rescued by IPP are therefore specific to the apicoplast. The values are expressed as the ratio of the corresponding activity with and without IPP, respectively.
Format: functional, W2
No unit in the answer, only the number.

What Ratio value was documented for this compound, `CCCc1c(CC)c(=N)c2ccccc2n1C` ?
1.043

Item: CCCCCn1c(=N)n(CC(O)COc2cccc(C)c2)c2ccccc21.Cl (stereo unspecified)
1.128

Item: `CCn1nc(-c2ccc(C(=O)OC)cc2)nc2c(=O)n(C)c(=O)nc1-2`
1.058

Item: CCOC(=O)C1=C(C)N=c2sc(=Cc3cc(Cl)ccc3O)c(=O)n2C1c1ccc(OC)cc1 (stereo unspecified)
1.255

Item: `CN(C)c1ccc(N2C(N)=NC(N)=NC2(C)C)cc1`
0.7632

Item: Cc1sc(NC(=O)c2ccco2)c(C(c2cccnc2)N2CCC(Cc3ccccc3)CC2)c1C (stereo unspecified)
1.123
